target: vanilloid receptor (VR1) (Homo sapiens); construct: expressed in transfected cells; host or cells: CHO K1 cells (ECACC), stably transfected; assay: FLIPR Ca2+ influx assay on CHO K1 cells transfected with the VR1 gene (pharmacological method II); format: cell-based; settings: table 4; capsaicin; read-out: Ki (human) Cap.
Sequence (Q8NER1 whole entry): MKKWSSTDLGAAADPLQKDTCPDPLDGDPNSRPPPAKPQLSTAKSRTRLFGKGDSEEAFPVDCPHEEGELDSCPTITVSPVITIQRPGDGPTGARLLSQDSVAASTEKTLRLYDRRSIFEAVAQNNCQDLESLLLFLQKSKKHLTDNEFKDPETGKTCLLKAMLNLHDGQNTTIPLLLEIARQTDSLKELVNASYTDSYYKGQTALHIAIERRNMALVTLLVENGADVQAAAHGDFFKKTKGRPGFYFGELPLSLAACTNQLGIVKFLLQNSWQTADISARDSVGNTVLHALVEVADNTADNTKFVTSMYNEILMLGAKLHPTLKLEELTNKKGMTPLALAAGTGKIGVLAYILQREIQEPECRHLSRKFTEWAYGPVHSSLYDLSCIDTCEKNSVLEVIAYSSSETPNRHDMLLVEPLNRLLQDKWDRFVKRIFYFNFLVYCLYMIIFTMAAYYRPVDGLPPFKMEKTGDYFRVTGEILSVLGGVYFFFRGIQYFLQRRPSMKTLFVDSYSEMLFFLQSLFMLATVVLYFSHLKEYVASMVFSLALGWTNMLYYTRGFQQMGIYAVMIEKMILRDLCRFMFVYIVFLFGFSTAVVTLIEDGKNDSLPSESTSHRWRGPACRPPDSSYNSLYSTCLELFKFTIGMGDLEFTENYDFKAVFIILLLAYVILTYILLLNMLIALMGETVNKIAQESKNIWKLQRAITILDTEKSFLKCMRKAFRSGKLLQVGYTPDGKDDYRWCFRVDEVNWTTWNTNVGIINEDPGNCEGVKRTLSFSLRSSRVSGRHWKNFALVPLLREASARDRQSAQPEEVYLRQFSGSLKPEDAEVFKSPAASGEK
Examples of compounds with documented pKi follow.
API: returns pKi as number; meaning -log10 of concentration in mol/L.

Query :: Tell me the measured pKi of COc1ccc(-c2nc(C(F)(F)F)ccc2CNC(=O)C(C)c2ccc(NS(C)(=O)=O)c(F)c2)cc1OC (stereo not drawn) , please.
Result :: 7.59

Query :: Tell me the measured pKi of CC(C(=O)NCc1ccc(C(F)(F)F)cc1OCc1ccccc1)c1ccc(NS(C)(=O)=O)c(F)c1 (stereo not drawn) , please.
Result :: 9.05

Query :: Tell me the measured pKi of CC1CCN(c2nc(C(F)F)ccc2CNC(=O)C(C)c2ccc(NS(C)(=O)=O)c(F)c2)CC1 (stereo not drawn) , please.
Result :: 9.00

Query :: Tell me the measured pKi of CC(C(=O)NCc1ccc(C(F)(F)F)nc1N1CCC(c2ccc(F)cc2)CC1)c1ccc(NS(C)(=O)=O)c(F)c1 (stereo not drawn) , please.
Result :: 8.38

Query :: Tell me the measured pKi of Cc1ccc(CCc2nc(C(F)(F)F)ccc2CNC(=O)C(C)c2ccc(NS(C)(=O)=O)c(F)c2)cc1 (stereo not drawn) , please.
Result :: 9.22

Query :: Tell me the measured pKi of CCCCCOc1nc(C(C)(C)C)ccc1CNC(=O)C(C)c1ccc(NS(C)(=O)=O)c(F)c1 (stereo not drawn) , please.
Result :: 9.10

Query :: Tell me the measured pKi of CCCCC(CCCC)Oc1nc(C(F)(F)F)ccc1CNC(=O)C(C)c1ccc(NS(C)(=O)=O)c(F)c1 (stereo not drawn) , please.
Result :: 9.30

Query :: Tell me the measured pKi of CC(C(=O)NCc1ccc(C(C)(C)C)nc1OCc1ccccc1)c1ccc(NS(C)(=O)=O)c(F)c1 (stereo not drawn) , please.
Result :: 8.36

Query :: Tell me the measured pKi of CCC(CC)Oc1nc(C(F)(F)F)ccc1CNC(=O)C(C)c1ccc(NS(C)(=O)=O)c(F)c1 (stereo not drawn) , please.
Result :: 8.96

Query :: Tell me the measured pKi of CCC1CCN(c2nc(C(F)(F)F)ccc2CNC(=O)C(C)c2ccc(NS(C)(=O)=O)c(F)c2)CC1 (stereo not drawn) , please.
Result :: 8.82

Query :: Tell me the measured pKi of COc1cccc(COc2nc(C(F)(F)F)ccc2CNC(=O)C(C)c2ccc(NS(C)(=O)=O)c(F)c2)c1 (stereo not drawn) , please.
Result :: 9.10
